Attribution: patent US4672068A

Test system: Male spontaneously hypertensive rats (SHR), arterial blood pressure
assay: Depressor response after intraduodenal administration (1 mg/kg), Table 2
Type: in vivo, rat
study-conditions: '120<' means greater than 120
assay-readout: Half-life

[[record]]
molecule = "COC(=O)C1=C(C)NC(C)=C(C(=O)OC(C)C=Cc2ccccc2)C1c1cccc([N+](=O)[O-])c1 (stereo not shown)"
target_or_system = "Male spontaneously hypertensive rats (SHR), arterial blood pressure"
reading = "> 4 h"

[[record]]
molecule = "COC(=O)C1=C(C)NC(C)=C(C(=O)OC(C=Cc2ccccc2)c2ccccc2)C1c1cccc([N+](=O)[O-])c1 (stereo not shown)"
target_or_system = "Male spontaneously hypertensive rats (SHR), arterial blood pressure"
reading = "> 4 h"

[[record]]
molecule = "COC(=O)C1=C(C)NC(C)=C(C(=O)OC/C=C/c2ccccc2)C1c1cccc([N+](=O)[O-])c1 (stereo not shown)"
target_or_system = "Male spontaneously hypertensive rats (SHR), arterial blood pressure"
reading = "> 2 h"

[[record]]
molecule = "C=CCOC(=O)C1=C(C)NC(C)=C(C(=O)OC)C1c1cccc([N+](=O)[O-])c1 (stereo not shown) [C, reference compound]"
target_or_system = "Male spontaneously hypertensive rats (SHR), arterial blood pressure"
reading = "0.333 h"

[[record]]
molecule = "COC(=O)C1=C(C)NC(C)=C(C(=O)OCC=Cc2ccco2)C1c1cccc([N+](=O)[O-])c1 (stereo not shown)"
target_or_system = "Male spontaneously hypertensive rats (SHR), arterial blood pressure"
reading = "> 2 h"

[[record]]
molecule = "COC(=O)C1=C(C)NC(C)=C(C(=O)OCCC=Cc2ccc(C#N)cc2)C1c1cccc([N+](=O)[O-])c1 (stereo not shown)"
target_or_system = "Male spontaneously hypertensive rats (SHR), arterial blood pressure"
reading = "> 3.33 h"

[[record]]
molecule = "COC(=O)C1=C(C)NC(C)=C(C(=O)OCC=CC=Cc2ccccc2)C1c1cccc([N+](=O)[O-])c1 (stereo not shown)"
target_or_system = "Male spontaneously hypertensive rats (SHR), arterial blood pressure"
reading = "> 2 h"

